meta.source: patent US12383631

tested.system: T1, IL-18 receptor (IL-18Rα/IL-18Rβ) on cells (HEK-Blue IL18R reporter cells, NK-92, KG-1) (human, UniProt Q13478 19-541; O95256 20-599)
T1 sequence (looked up) 1: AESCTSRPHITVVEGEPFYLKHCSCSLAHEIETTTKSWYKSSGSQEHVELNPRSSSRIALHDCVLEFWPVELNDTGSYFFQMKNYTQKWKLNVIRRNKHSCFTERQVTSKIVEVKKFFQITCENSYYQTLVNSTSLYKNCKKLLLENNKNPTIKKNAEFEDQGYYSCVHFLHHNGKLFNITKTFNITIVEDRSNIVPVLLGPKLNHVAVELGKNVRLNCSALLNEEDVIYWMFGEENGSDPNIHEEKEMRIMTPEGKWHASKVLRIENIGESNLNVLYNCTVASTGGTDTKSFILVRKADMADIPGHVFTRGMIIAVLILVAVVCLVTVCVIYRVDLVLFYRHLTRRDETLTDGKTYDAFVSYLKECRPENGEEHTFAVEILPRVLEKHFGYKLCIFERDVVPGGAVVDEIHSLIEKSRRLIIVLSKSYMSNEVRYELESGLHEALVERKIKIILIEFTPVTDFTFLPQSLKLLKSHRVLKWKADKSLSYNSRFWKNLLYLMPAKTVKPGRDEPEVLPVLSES
T1 sequence (looked up) 2: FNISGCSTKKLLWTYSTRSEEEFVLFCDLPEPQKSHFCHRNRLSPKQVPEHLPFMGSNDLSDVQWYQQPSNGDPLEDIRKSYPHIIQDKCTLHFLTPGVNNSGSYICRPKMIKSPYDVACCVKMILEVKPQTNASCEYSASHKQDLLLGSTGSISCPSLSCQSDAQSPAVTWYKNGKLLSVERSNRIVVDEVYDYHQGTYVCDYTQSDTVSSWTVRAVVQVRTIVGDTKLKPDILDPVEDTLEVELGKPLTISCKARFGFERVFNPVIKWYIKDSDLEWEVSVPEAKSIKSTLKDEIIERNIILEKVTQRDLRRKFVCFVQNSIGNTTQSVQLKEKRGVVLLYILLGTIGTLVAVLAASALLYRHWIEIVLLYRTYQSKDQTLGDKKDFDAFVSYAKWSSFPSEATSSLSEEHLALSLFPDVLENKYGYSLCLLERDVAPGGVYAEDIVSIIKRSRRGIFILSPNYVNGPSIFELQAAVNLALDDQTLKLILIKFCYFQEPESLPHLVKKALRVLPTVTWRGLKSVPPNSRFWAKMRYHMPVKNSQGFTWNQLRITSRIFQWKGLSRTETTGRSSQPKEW
test: cell-based or functional assay
recorded.endpoint: EC50, IFNγ stimulation, NK92 cells (pM)
State the answer as a number, implicitly in pM.

Examples from the recorded data:
IL-18 polypeptide of SEQ ID NO: 34 (E06K, K53A, S55A) (ligand) YFGKLKSKLSVIRNLNDQVLFIDQGNRPLFEDMTDSDCRDNAPRTIFIISMYADAQPRGMAVTISVKCEKISTLSCENKIISFKEMNPPDNIKDTKSDIIFFQRSVPGHDNKMQFESSSYEGYFLACEKERDLFKLILKKEDELGDRSIMFTVQNED :: 824
IL-18 polypeptide of SEQ ID NO: 46 (E06K, K53A, S55A, M51G) (ligand) YFGKLKSKLSVIRNLNDQVLFIDQGNRPLFEDMTDSDCRDNAPRTIFIISGYADAQPRGMAVTISVKCEKISTLSCENKIISFKEMNPPDNIKDTKSDIIFFQRSVPGHDNKMQFESSSYEGYFLACEKERDLFKLILKKEDELGDRSIMFTVQNED :: 7400

Now let's try a different one.
Prompt: Reported EC50, IFNγ stimulation, NK92 cells, binder IL-18 polypeptide C151 (ligand, also called V11I, D35A, C38A, K53A, C76A, C127A) YFGKLESKLSIIRNLNDQVLFIDQGNRPLFEDMTASDARDNAPRTIFIISMYADSQPRGMAVTISVKCEKISTLSAENKIISFKEMNPPDNIKDTKSDIIFFQRSVPGHDNKMQFESSSYEGYFLAAEKERDLFKLILKKEDELGDRSIMFTVQNED : ____
Completion: 61
